B1: Flag-CNK^2–549 [Drosophila] / GST-HYP [Drosophila] (parent complex)
chain 1: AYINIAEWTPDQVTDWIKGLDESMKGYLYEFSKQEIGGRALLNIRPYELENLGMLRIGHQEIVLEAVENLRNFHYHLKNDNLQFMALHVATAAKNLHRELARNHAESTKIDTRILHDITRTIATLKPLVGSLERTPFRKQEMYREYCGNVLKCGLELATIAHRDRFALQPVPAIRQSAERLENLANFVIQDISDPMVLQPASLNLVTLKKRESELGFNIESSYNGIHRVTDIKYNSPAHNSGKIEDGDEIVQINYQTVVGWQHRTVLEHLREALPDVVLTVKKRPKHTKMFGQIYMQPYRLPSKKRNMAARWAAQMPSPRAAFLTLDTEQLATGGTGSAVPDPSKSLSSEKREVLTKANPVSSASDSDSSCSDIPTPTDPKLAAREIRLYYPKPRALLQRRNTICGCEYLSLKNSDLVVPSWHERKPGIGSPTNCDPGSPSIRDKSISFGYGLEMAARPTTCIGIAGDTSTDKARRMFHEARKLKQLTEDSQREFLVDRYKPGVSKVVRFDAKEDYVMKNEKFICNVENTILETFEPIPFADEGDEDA
chain 2: MGEETINSTQNKTRTKTTRPKAVYLWTVSDVLKWYRRHCGEYTQYEQLFAQHDITGRALLRITDSSLQRMGVTDNRDREAIWREIVKQRLKTDIMEIRDMERLNIY

# Variants of: B1
# assay details: GST pull-down, immunoblot quantification; S2 cells; GST-HYP + RRKM co-expressed; anti-Flag (CNK) blot; parent: 1
measurement name: ratio to parent

> print(dat)
                            mut  measurement.name  result
1                  chain 1 F73R   ratio to parent    0.94
2                 chain 1 V251R   ratio to parent    0.68
3  chain 1 E249R, chain 1 V251R   ratio to parent    0.08
4                 chain 1 E249R   ratio to parent    0.84
5    chain 1 A66F, chain 1 F73R   ratio to parent    0.58
6                  chain 1 A66F   ratio to parent    0.87

I = chain 1 F73R, chain 1 V251R
II = chain 1 F73R, chain 1 E249R
I need your help: which of the pair I , II has higher ratio to parent? Mark your selection by writing its label.
I
